# system name: STAT6 (Homo sapiens)
# Construct: stably transfected HaCaT keratinocyte cell line, which expresses NanoLuc luciferase reporter gene under the transcriptional control of the STAT6 responsive promoter; endogenous in cells; host or cells: HaCaT keratinocyte reporter cell line (stably transfected with a NanoLuc reporter)
# Sequence (P42226 whole entry): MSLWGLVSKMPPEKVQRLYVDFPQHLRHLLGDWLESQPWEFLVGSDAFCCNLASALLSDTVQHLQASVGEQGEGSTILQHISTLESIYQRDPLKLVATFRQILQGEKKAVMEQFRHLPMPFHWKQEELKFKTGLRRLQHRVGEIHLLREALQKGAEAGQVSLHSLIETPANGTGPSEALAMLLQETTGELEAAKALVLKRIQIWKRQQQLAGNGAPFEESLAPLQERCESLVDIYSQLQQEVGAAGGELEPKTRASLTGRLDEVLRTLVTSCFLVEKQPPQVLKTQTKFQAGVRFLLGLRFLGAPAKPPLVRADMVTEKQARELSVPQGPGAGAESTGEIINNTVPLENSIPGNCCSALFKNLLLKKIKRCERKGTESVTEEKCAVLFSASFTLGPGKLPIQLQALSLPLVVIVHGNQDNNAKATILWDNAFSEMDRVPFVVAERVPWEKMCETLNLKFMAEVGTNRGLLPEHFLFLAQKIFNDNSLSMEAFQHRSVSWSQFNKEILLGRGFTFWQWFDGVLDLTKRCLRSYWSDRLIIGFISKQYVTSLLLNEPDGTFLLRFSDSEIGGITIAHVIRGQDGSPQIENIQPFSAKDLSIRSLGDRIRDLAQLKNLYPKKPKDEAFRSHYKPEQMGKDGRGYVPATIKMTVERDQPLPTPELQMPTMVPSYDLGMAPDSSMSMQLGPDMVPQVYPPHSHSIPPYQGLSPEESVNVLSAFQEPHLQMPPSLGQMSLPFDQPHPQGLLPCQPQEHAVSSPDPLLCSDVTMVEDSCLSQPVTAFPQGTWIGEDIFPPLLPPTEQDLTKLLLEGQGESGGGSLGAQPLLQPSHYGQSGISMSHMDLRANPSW
# method: STAT6 Reporter Luciferase Assay (IL-13 stimulated HaCaT keratinocyte NanoLuc reporter cells)
# Type: cell-based
# condition label: IL-13 stimulated HaCaT STAT6 NanoLuc reporter cells; read-out: Reporter EC50
# Excerpt: Pharmacological measurements of STAT6 transcriptional activity through the IL-13-IL-13 receptor/IL-4 receptor pathway were made with a stably transfected HaCaT keratinocyte cell line, which expresses NanoLuc luciferase reporter gene under the transcriptional control of the STAT6 responsive promoter for IL-13Ra2. The readout of the STAT6 activity utilized Promega Nano-Glo Luciferase assay kit. […]
Provide the recorded EC50 for the entries that follow.
Reply with the number, then its unit.

Form entry - test system: STAT6 (Homo sapiens); read-out: EC50; molecule: CN(C)C(=O)Nc1ccc(CNC(=O)c2nn(C)c3c2CN(c2ncc(C(=O)N(C)C)cn2)CC3C(F)(F)F)cc1 (single isomer, unassigned)
568 nM

Requested read-out EC50, target or system STAT6 (Homo sapiens), entry `CC(C)n1nc(C(=O)NCc2ccc(NC(=O)N3CC[C@H](C#N)C3)cc2)c2c1CCN(c1ccc(C(=O)N(C)C)cn1)C2`
17 nM

Identify the measured EC50 of `Cc1nn(C)c(=O)n1-c1ccc(CNC(=O)c2nn(C(C)C)c3c2CN(c2ccc(C(=O)N(C)C)cn2)C[C@@H]3C)cc1` for STAT6 (Homo sapiens).
432 nM
